# Tested on: SF-268 CNS
# assay comment: NCI tumour cell line growth inhibition, 48 h
Where a SMILES comes first, the peptide text is derived from it.
readout label: TGI

IN: Look at this compound and give its reported TGI. CCC(C)C(NC(=O)C1CCCN1C(=O)C(CC(C)C)NC(=O)C(CC(C)C)NC(=O)C(N)CC(C)C)C(=O)NC(C(=O)NCC(=O)NC(CC(N)=O)C(=O)NC(CC(C)C)C(=O)NC(CC(C)C)C(=O)NC(CC(C)C)C(N)=O)C(C)C (centres undefined) (H-LLLPIVGNLLL-NH2; configuration not given here)
OUT: > 50 µM

IN: Look at this compound and give its reported TGI. "S=C1N=C(Cl)/C(=C\c2ccco2)N1"
OUT: > 100 µM

IN: Look at this compound and give its reported TGI. "Cc1cc(C)c2c(SCc3ccc(Cl)cc3Cl)nc(N)nc2n1"
OUT: > 100 µM

IN: Look at this compound and give its reported TGI. "Cc1nc2ncn3c(c-2c1Cc1ccccc1)NC=C(O)N3"
OUT: > 100 µM

IN: Look at this compound and give its reported TGI. Cc1ccc(NC(=O)C2C(=O)N(c3ccc(C)c(C)c3)C(=O)/C2=N\NC(N)=S)cc1C (centres undefined)
OUT: > 100 µM

IN: Look at this compound and give its reported TGI. "CN1CCN(CCNc2ccc(CO)c3sc4ccccc4c(=O)c23)CC1"
OUT: 20.7 µM

IN: Look at this compound and give its reported TGI. CC(CN1CCN(CC(C)Nc2ccnc3cc(Cl)ccc23)CC1)Nc1ccnc2cc(Cl)ccc12 (centres undefined)
OUT: > 36 µM

IN: Look at this compound and give its reported TGI. "Clc1ccc(C=NC23CC4CC(CC(C4)C2)C3)cc1Cl"
OUT: > 10 µM

IN: Look at this compound and give its reported TGI. "CC1(C)CCCOc2cccc(c2)OCCCC(C)(C)C1=O"
OUT: > 100 µM

IN: Look at this compound and give its reported TGI. CCCCCCCCCCCC(O)=C1C(=O)CC(O)CC1=O (centres undefined)
OUT: > 100 µM

IN: Look at this compound and give its reported TGI. "Cc1cc(=O)[nH]c(/N=C(\N)Nc2ccc(Cl)cc2)n1"
OUT: > 100 µM

IN: Look at this compound and give its reported TGI. C=CCC(N[C@H](CO)c1ccccc1)c1cn(S(=O)(=O)c2ccc(C)cc2)c2ccccc12 (some centres undefined)
OUT: > 100 µM

IN: Look at this compound and give its reported TGI. "CCO/C(O)=C(/C(=N)N1CCCC1)C(=O)Nc1ccc(F)cc1"
OUT: > 100 µM

IN: Look at this compound and give its reported TGI. "O=C1CCCCC(=O)Nc2ccccc2N1"
OUT: > 100 µM

IN: Look at this compound and give its reported TGI. COc1ccc2c(c1)CCC1=C/C(=N\NC(N)=O)CCC12C (centres undefined)
OUT: > 10 µM

IN: Look at this compound and give its reported TGI. COC(=O)C1N=CSCC1(C)O (centres undefined)
OUT: > 100 µM

IN: Look at this compound and give its reported TGI. "CCCCCCC#CC#Cc1cccc(=O)o1"
OUT: 11.9 µM

IN: Look at this compound and give its reported TGI. "CCOc1ccc2ccc3cccnc3c2n1"
OUT: > 100 µM

IN: Look at this compound and give its reported TGI. "Nc1ccc(Oc2ccc(C34CC5CC(C3)CC(c3ccc(Oc6ccc(N)cc6)cc3)(C5)C4)cc2)cc1"
OUT: > 51.7 µM

Source listed as PubChem BioAssay (NCI).
